Assay: NCI Yeast Anticancer Drug Screen. Data for the sgs1 mgt1 strain (AID 161);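 also: 0% = growth of cultures given vehicle only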
Settings: S. cerevisiae sgs1 mgt1 strain, at 50.0 µM (retest, dose inferred, filed as 5.0), hits give high values
About 79,000 compounds went through this panel and 15% of them were active in at least one assay; those are over-represented in the sample as a whole.
measurement label: growth inhibition (%)
Entry rule: numbers only, all in %.

compound	growth inhibition [%]
Clc1ccc(NCNC2Nc3ccccc3N2)cc1Cl	99
Cc1ccc2c3ccc4c(c3n(C)c2c1)C(=O)C=CC4=O	58
Nc1ccc(F)cc1S	100
CN(C)c1nc(=Nc2cccc(Cl)c2)ss1	99
Cc1cccc[n+]1C1CCc2c(ccc3ccccc23)C1=O (stereo not drawn)	55
COc1cc(CSc2ccc(O)cc2)cc(O)c1O	30
COc1nc2c(c(=O)n1C)N=C(c1ccccc1)[C@H](C(CC(=O)c1ccccc1)c1ccccc1)C(c1ccccc1)N2 (stereo partly drawn)	35

[ask] Query (compound): CC1OC(O[C@H]2/C=C/C=C/C=C/C=C/C=C/C=C/C=C/[C@H](C)[C@@H](O)[C@@H](C)[C@H](C)OC(=O)C[C@H](O)C[C@H](O)CC[C@@H](O)[C@H](O)C[C@H](O)C[C@]3(O)C[C@H](O)[C@@H](C(=O)O)[C@H](C2)O3)C(O)C(N)C1O (stereo partly drawn) ; field requested: growth inhibition
[reply] 99
